Where do these numbers come from? They come from patent US20080312435A1.

ENDPOINT_NAME: melting point

Known results for compounds:
chemical_structure=CCN(CC)c1cccc(C(=O)/N=c2\sc(C(C)(C)C)c(C)n2CC2CC2)c1 value_measured="89 to 90 °C"
chemical_structure=Cc1c(C(C)(C)C)s/c(=N\C(=O)C(F)(F)C(F)(F)C(F)(F)F)n1C value_measured="180 to 182 °C"
chemical_structure=Cc1c(C(C)(C)C)s/c(=N\C(=O)c2cccc(C(F)(F)F)c2)n1C value_measured="140 to 142 °C"
chemical_structure=O=C(/N=c1\ccc(C(F)(F)F)cn1CC1CC1)c1cc(C(F)(F)F)ccc1F value_measured="109 to 110 °C"
chemical_structure=CC(C)n1cccc/c1=N\C(=O)c1cccc(C(F)(F)F)c1F value_measured="86 to 88 °C"

So for "CCn1c(C)c(C(C)(C)C)s/c1=N\C(=O)c1cccc(C(F)(F)F)c1" , the logged melting point turned out to be 158 to 160 °C

So for "Cc1ccnc(C)c1C(=O)/N=c1\sc(C(C)(C)C)c(C)n1CC1CC1" , the logged melting point turned out to be 156 to 157 °C

So for "CCOCCn1/c(=N/C(=O)c2cccc(C)c2Br)cc(C(C)(C)C)n1C" , the logged melting point turned out to be 166 to 167 °C

So for "CCCn1c(C)c(C(C)(C)C)s/c1=N\C(=O)c1cccc(C(F)(F)F)c1" , the logged melting point turned out to be 172 to 174 °C

So for "COc1ccc(C(F)(F)F)cc1C(=O)/N=c1\sc(C(C)(C)C)nn1CC1CC1" , the logged melting point turned out to be 82 to 83 °C

So for "Cc1c(C(C)(C)C)s/c(=N\C(=O)c2ccc(Cl)cc2F)n1CC1CC1" , the logged melting point turned out to be 108 to 110 °C

====

EXPERIMENTAL_TARGET: human CB2 receptor (Homo sapiens)
Construct: expressed in transfected cells
Sequence (P34972 whole entry): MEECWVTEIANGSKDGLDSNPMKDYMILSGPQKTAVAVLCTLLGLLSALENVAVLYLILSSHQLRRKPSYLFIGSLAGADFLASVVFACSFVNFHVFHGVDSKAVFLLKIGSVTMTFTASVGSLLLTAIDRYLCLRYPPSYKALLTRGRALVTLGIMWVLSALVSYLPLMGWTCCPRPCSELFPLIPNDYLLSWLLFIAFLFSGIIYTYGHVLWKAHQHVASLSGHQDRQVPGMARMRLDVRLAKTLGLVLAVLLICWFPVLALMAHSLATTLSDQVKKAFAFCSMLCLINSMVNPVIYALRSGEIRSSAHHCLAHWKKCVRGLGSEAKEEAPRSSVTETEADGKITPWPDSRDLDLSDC
PROTOCOL_SUMMARY: Human CB2 receptor binding inhibition test ([3H]CP-55,940, CHO membrane fractions)
CONDITIONS_USED: [3H]CP-55,940, membrane fractions of CHO cells stably expressing human CB2 receptor, 25° C., 2 hours; read-out: CB2 IC50 (Inhibition of binding to human CB2 receptor)
A collection of compounds and their measured log10 IC50
In our notation, the value equals log10 of IC50 in nM.

So for "Cc1ccc(C(=O)/N=c2\sc(C(C)(C)C)c(C)n2CC2CC2)c(C)c1" , the logged log10 IC50 turned out to be 0.23

So for "CCc1s/c(=N\C(=O)c2cccc(C(F)(F)F)c2F)n(CC2CC2)c1C" , the logged log10 IC50 turned out to be 0.11

So for "COCCn1c(C)c(C(C)C)s/c1=N\C(=O)c1cccc(C(F)(F)F)c1F" , the logged log10 IC50 turned out to be 0.20

So for "Cc1c(C(C)(C)C)s/c(=N\C(=O)c2cc(C(F)(F)F)ccc2F)n1CC1CC1" , the logged log10 IC50 turned out to be 0.53

So for "Cc1c(C(C)(C)C)s/c(=N\C(=O)c2ccccc2I)n1CC1CC1" , the logged log10 IC50 turned out to be -0.15

So for "CCn1c(C)c(C(C)(C)C)s/c1=N\C(=O)c1cc(F)ccc1C(F)(F)F" , the logged log10 IC50 turned out to be 0.61

So for "Cc1c(C(C)(C)C)s/c(=N\C(=O)c2ccccc2N2CCOCC2)n1CC1CC1" , the logged log10 IC50 turned out to be 0.76

So for "Cc1cccc(C(=O)/N=c2\sc(C(C)(C)C)c(C)n2CC2CC2)c1Br" , the logged log10 IC50 turned out to be -0.52

So for "Cc1c(Cl)s/c(=N\C(=O)c2cccc(C(F)(F)F)c2F)n1CC1CC1" , the logged log10 IC50 turned out to be 0.53

So for "Cc1c(C(C)(C)C)s/c(=N\C(=O)c2cccc(C(F)(F)F)c2F)n1CC1CC1" , the logged log10 IC50 turned out to be 0.04

So for "Cc1c(C(C)(C)C)s/c(=N\C(=O)c2cccc(I)c2)n1CC1CC1" , the logged log10 IC50 turned out to be 1.12

So for "CC(C)(C)c1c/c(=N\C(=O)c2cc(C(F)(F)F)ccc2F)n(CC2CC2)o1" , the logged log10 IC50 turned out to be 1.27

So for "CCn1c(C)c(C(C)(C)C)s/c1=N\C(=O)c1cccc(C(F)(F)F)c1F" , the logged log10 IC50 turned out to be 0.63

So for "Cc1c(C(C)(C)C)s/c(=N\C(=O)c2cc(F)ccc2C(F)(F)F)n1CC1CC1" , the logged log10 IC50 turned out to be 0.15

So for "Cc1c(C(C)(C)C)s/c(=N\C(=O)c2cccc(C(F)(F)F)c2)n1CC1CC1" , the logged log10 IC50 turned out to be 1.08

So for "CCn1c(C)c(C(C)(C)C)s/c1=N\C(=O)c1cc(F)ccc1C" , the logged log10 IC50 turned out to be 0.99

So for "Cc1c(C(C)(C)C)s/c(=N\C(=O)c2cc(Cl)ncc2Cl)n1CC1CC1" , the logged log10 IC50 turned out to be 0.00

So for "Cc1c(C(C)(C)C)s/c(=N\C(=O)c2ccccc2Br)n1C" , the logged log10 IC50 turned out to be 0.87

So for "COc1cccc(C(=O)/N=c2\sc(C(C)(C)C)c(C)n2CC2CC2)c1" , the logged log10 IC50 turned out to be 1.28
